What TGI was measured for each of the following?
system: SK-MEL-2 melanoma; test: NCI tumour cell line growth inhibition, 48 h

// each listed molecule needs a value for TGI
1. Nc1c(C(=O)c2cccc(CCS(N)(=O)=O)c2)cnn1-c1ccc(F)cc1
2. Cc1ccsc1C(=S)Nc1ccc(Cl)c(/C=N/OC(C)(C)C)c1
3. Cc1ccc(NC(=O)Nc2ccc(-c3cccnc3)cc2N2CCC(CO)CC2)cc1
4. O=C(Nc1ccc(F)cc1)Nc1ccc(Cl)c([N+](=O)[O-])c1
5. O=C1/C(=C\c2ccccc2)C(NC2CCCCC2)c2ccccc21 (stereo not given)
6. Cc1ccc([N+](=O)[O-])cc1NC1=NCCO1
7. O=C(CCN1CCCCC1)C(=Cc1ccccc1)C(=O)CCN1CCCCC1

1: > 25 µM; 2: > 100 µM; 3: 8.38 µM; 4: 5.83 µM; 5: 5.25 µM; 6: > 100 µM; 7: > 100 µM

// each molecule listed below needs its TGI
1. C[C@@H](NC(=O)[C@@H]1C[C@]1(C)COC(=O)c1cc([N+](=O)[O-])cc([N+](=O)[O-])c1)c1cccc2ccccc12
2. OCCN(CCO)c1ncnc2c1ncn2Cc1ccc(CCl)cc1
3. N#CCCC1C(C#N)C2(Cl)CC1(Cl)C(Cl)=C2Cl (stereo not given)
4. CN1CCc2cc(N)cc3c2C1Cc1ccc(O)c(O)c1-3 (stereo not given)
5. NS(=O)(=O)OC[C@@H]1C[C@@H](n2ccc3c(NC4CCc5ccccc54)ncnc32)C[C@@H]1O (stereo not given in full)
6. CC(=O)O[C@@H]1[C@H](C(C)C)[C@@H](OC(C)=O)C/C(C)=C/CC[C@]2(C)O[C@@H]12

1. > 100 µM
2. 41.1 µM
3. > 10 µM
4. > 100 µM
5. 21 µM
6. > 100 µM

Give TGI for all molecules that follow.
1. O=C(O)CCNCCCNCCC(=O)O
2. COc1cnc2c(c1)C(=O)c1c-2n(CCCN2CCOCC2)c(=O)c2cc(F)ccc12
3. CCN(CC)N=Nc1c(C(N)=O)n[nH]c1C
4. C=C(C)C(=O)OC1C/C(CO)=C\C(O)C/C(C)=C/C2OC(=O)C(=C)C21 (stereo not given)
5. Cc1c(C(=O)CC(=O)C(=O)Nc2ccccc2C(F)(F)F)[n+](=O)c2ccccc2n1[O-]
6. CCn1c(C)nn2c(=O)c3ccccc3nc2c1=O

1: > 100 µM; 2: 5.18 µM; 3: > 100 µM; 4: 36.6 µM; 5: 48.3 µM; 6: > 100 µM

Return reported TGI values for all items listed beneath this line.
1. Nc1ccccc1S(=O)(=O)N(CC(=O)O)c1ccccc1
2. CNC(=S)OCCC(C)CCCC(C)C (stereo not given)
3. CC(=O)OC1CC(OC2C(O)CC(OC3C(O)CC(OC4CCC5(C)C(CCC6C5CC(O)C5(C)C(C7=CC(=O)OC7)CCC65O)C4)OC3C)OC2C)OC(C)C1OC1OC(CO)C(O)C(O)C1O (stereo not given)
4. Nc1nc(-n2c(-c3ccccc3)nc3c(Br)cc(Br)cc3c2=O)nnc1-c1cccc(Cl)c1Cl
5. CC(=O)[CH-]C(=O)c1ccccc1.CC(=O)[CH-]C(=O)c1ccccc1.CN(C)c1ccc([O-])cc1.CN(C)c1ccc([O-])cc1.Cl.[Ti+4]
6. COC(=O)c1ccccc1CC1Cc2ccc3c(c2C1=O)CCCC3 (stereo not given)
7. Cc1cc(N(CCC#N)CCC#N)ccc1N=Nc1ccc(S(N)(=O)=O)cc1
8. COc1ccc(COCCOCc2nc(C#N)c(N)o2)cc1

1: > 100 µM; 2: 26.7 µM; 3: 0.488 µM; 4: > 100 µM; 5: > 31.6 µM; 6: > 76.3 µM; 7: > 100 µM; 8: > 100 µM

Give one value of TGI per listed molecule.
1. C[C@@H](Oc1cc(-n2cnc3ccc(CN4CCN(C)CC4)cc32)sc1C(N)=O)c1ccccc1C(F)(F)F
2. O=C(N/N=C(/COc1ccc(Cl)cc1)N=Cc1ccncc1)c1ccncc1
3. COc1ccc(-c2c(C#N)c(-c3ccc(C)cc3)n(NS(=O)(=O)c3ccc(C)cc3)c(=O)c2C#N)cc1
4. Cc1ccc(-c2n[nH]c(=O)n2N2C(=O)c3ccccc3C2=O)cc1

["> 10 µM", "> 100 µM", "> 100 µM", "> 100 µM"]

For each entry beneath this line, provide reported TGI.
1. CCCC1C(=O)CCc2c(OC)ccc(OC)c21 (stereo not given)
2. C[C@@H]1CC[C@]2(C(=O)O)CC[C@]3(C)C(=CC[C@@H]4[C@@]5(C)CC[C@H](O)C(C)(C)[C@@H]5CC[C@]43C)[C@@H]2[C@]1(C)O
3. CCOC1Oc2ccccc2C(=O)/C1=C/Nc1ccc(C(C)=O)cc1 (stereo not given)
4. COc1cc2ccnc([C@@H](OC(=O)c3ccccc3)c3ccc(OC)c(OC)c3OC)c2cc1OC
5. NC(N)=N/N=C/c1c(-c2ccc(N)cc2)nc2sccn12

1: > 100 µM; 2: 31.8 µM; 3: > 100 µM; 4: > 100 µM; 5: 81.8 µM

// each listed molecule needs a value for TGI
1. Cc1nc2n(c1/C=C1/C(=O)Nc3cccc(Cl)c31)CCS2
2. COc1cc2c(c(OC)c1OC)-c1ccc(NNC(N)=S)c(=O)cc1[C@@H](NC(C)=O)CC2
3. COC(=O)CC[N+]1=CCC(c2ccccc2)(c2ccccc2)O1
4. N#CC1(C#N)N[C@@H](c2ccsc2)[C@H]2C(=O)N(c3ccccc3)C(=O)[C@H]21

51.8 µM
> 100 µM
> 100 µM
> 100 µM
